# assayed.system: T1, rat α-CGRP (Rattus norvegicus, UniProt P01256)
# T1 construct: rat α (1-37); purchased GenScript Corporation or Global Peptide Services
# T1 sequence (P01256 83-119 limits assumed): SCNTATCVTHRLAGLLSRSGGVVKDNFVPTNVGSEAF
# procedure.details: Biacore SPR affinity of Fab fragments to N-biotinylated rat α-CGRP on SA chip
# Format: binding
# details: 37° C., screening mode except underlined values
quantity: α-rat koff
Hi, when you answer, please include the unit after the number. Thanks!

- molecule: "M39: G1 variant; L1 R28N; L2 G50A L56T; H2 A57N S58Y; HC-FW3 L99T A100V (antibody, V domains shown) VH: EVQLVESGGGLVQPGGSLRLSCAASGFTFSNYWISWVRQAPGKGLEWVAEIRSESDNYATHYAEAVKGRFTISRDNAKNSLYLQMNSLRAEDTAVYYCTVYFDYGLAIQNYWGQGTLVTVSS VL: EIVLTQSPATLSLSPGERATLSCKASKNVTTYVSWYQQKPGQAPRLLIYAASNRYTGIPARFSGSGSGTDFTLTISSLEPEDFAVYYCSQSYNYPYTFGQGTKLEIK"
  α-rat koff: "0.00995 s⁻¹"

Next molecule, please.
Give α-rat koff for the following molecule: M36: G1 variant; L1 R28N T30R; HC-FW3 L99T A100V (antibody, V domains shown) VH: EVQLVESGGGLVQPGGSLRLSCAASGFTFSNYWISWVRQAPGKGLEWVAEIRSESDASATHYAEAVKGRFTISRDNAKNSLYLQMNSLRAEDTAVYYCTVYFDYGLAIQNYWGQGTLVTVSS VL: EIVLTQSPATLSLSPGERATLSCKASKNVRTYVSWYQQKPGQAPRLLIYGASNRYLGIPARFSGSGSGTDFTLTISSLEPEDFAVYYCSQSYNYPYTFGQGTKLEIK 0.00479 s⁻¹
